What pIC50 was measured for each of the following?
Test target: K-Ras G13C (Homo sapiens (Human), UniProt P01116+P62937, G13C)
Sequence (P01116-2 other isoform, or with tags, fused parts or gaps G13C): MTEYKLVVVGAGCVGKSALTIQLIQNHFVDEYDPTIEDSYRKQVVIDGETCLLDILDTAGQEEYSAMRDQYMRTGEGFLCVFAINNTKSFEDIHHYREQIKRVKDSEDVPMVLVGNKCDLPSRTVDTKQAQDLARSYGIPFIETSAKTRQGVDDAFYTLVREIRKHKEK
Sequence (P62937 whole entry): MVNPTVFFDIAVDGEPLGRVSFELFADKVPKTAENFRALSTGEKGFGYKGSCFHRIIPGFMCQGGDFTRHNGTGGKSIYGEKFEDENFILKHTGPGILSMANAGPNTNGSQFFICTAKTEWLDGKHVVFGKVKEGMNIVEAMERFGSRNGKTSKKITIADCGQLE
Test protocol: Ras-Raf (BRAF RBD) disruption / FRET / MOA assay, KRAS G13C
Format: biochemical
Experimental context: KRAS G13C; Ras-Raf disruption/FRET/MOA assay; read-out: IC50* KRAS G13C FRET data
pIC50: −log10 of the molar value.

- Compound: "C=CC(=O)N1CC[C@H](C(=O)N(C)[C@H](C(=O)N[C@H]2Cc3cc(O)cc(c3)-c3ccc4c(c3)c(c(-c3cc(CN(C)C)nn3C)n4CC)CC(C)(C)COC(=O)[C@@H]3CCCN(N3)C2=O)C(C)C)C1 [Example A109]"
  pIC50: "< 5.00"

Hello, I would appreciate it if you could give pIC50 for each entry below.
1. CCn1c(-c2cccnc2)c2c3cc(ccc31)-c1cccc(c1)C[C@H](NC(=O)[C@H](C(C)C)N(C)C(=O)[C@H]1CCN(C(=O)C#CCN(C)C)C1)C(=O)N1CCC[C@H](N1)C(=O)OCC(C)(C)C2 [Example A152]
2. C=CC(=O)N(C)[C@@H]1CCCN(C(=O)N(C)[C@H](C(=O)N[C@H]2Cc3nc(cs3)-c3ccc4c(c3)c(c(-c3cccnc3[C@H](C)OC)n4CC)CC(C)(C)COC(=O)[C@@H]3CCCN(N3)C2=O)C(C)C)C1 (atropisomer, axis not shown) [Example A382]
3. C=CC(=O)N1CCN(C(=O)N(C)[C@H](C(=O)N[C@H]2Cc3nc(cs3)-c3ccc4c(c3)c(c(-c3cccnc3[C@H](C)OC)n4CC)CC(C)(C)COC(=O)[C@@H]3CCCN(N3)C2=O)C(C)C)C2(CC2)C1 (atropisomer, axis not shown) [Example A395]
4. C=CC(=O)N1CC[C@]2(CCN(C(=O)N(C)[C@H](C(=O)N[C@H]3Cc4nc(cs4)-c4ccc5c(c4)c(c(-c4cccnc4[C@H](C)OC)n5CC)CC(C)(C)COC(=O)[C@@H]4CCCN(N4)C3=O)C(C)C)C2)C1 (atropisomer, axis not shown) [Example A719]
5. C=CC(=O)N1CC[C@H](C(=O)N(C)[C@H](C(=O)N[C@H]2Cc3cccc(c3)-c3ccc4c(c3)c(c(-c3cccnc3[C@H](C)OC)n4CC)CC(C)(C)COC(=O)[C@@H]3CCCN(N3)C2=O)[C@@H](C)C(F)(F)F)C1 (atropisomer, axis not shown) [Example A640]

Key:
1. 5.00 to 6.00
2. 6.00 to 7.00
3. 6.00 to 7.00
4. 7.00 to 8.00
5. 6.00 to 7.00

====

Assignment: determine reported pIC50 for the given compounds.
Test target: KRAS G12V (Homo sapiens (Human), UniProt P01116+P62937, G12V)
Sequence (P01116-2 other isoform, or with tags, fused parts or gaps G12V, one chain of several): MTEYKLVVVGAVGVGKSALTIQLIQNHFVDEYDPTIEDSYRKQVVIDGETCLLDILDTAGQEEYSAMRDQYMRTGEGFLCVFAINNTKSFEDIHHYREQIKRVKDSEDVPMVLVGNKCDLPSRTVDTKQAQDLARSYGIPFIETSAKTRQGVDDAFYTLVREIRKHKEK
Test protocol: Ras-Raf (BRAF RBD) disruption / FRET / MOA assay, KRAS G12V
Format: biochemical
Experimental context: read-out: IC50* KRAS G12V FRET data
pIC50: −log10 of the molar value.

Solved cases below.
- Compound: "CCn1c(-c2cccnc2[C@H](C)OC)c2c3cc(ccc31)-c1cc(CF)cc(c1)C[C@H](NC(=O)[C@@H](COC1CN(C(=O)C#CC(C)(C)N(C)C)C1)C(C)C)C(=O)N1CCC[C@H](N1)C(=O)OCC(C)(C)C2 (atropisomer, axis not shown) [Example A587]"
  pIC50: "< 5.00"
- Compound: "C=CC(=O)N1CCN(C(=O)N(C)[C@H](C(=O)N[C@H]2Cc3nc(cs3)-c3ccc4c(c3)c(c(-c3cccnc3[C@H](C)OC)n4CC(F)(F)F)CC(C)(C)COC(=O)[C@@H]3CCCN(N3)C2=O)C(C)C)CC12CC2 (atropisomer, axis not shown) [Example A679]"
  pIC50: "7.00 to 8.00"
- Compound: "CCn1c(-c2cccnc2[C@H](C)OC)c2c3cc(ccc31)-c1csc(n1)C[C@H](NC(=O)C[C@@H](C)OC1CN(C(=O)C#CC(C)(C)N(C)C)C1)C(=O)N1CCC[C@H](N1)C(=O)OCC(C)(C)C2 (atropisomer, axis not shown) [Example A638]"
  pIC50: "5.00 to 6.00"

// input: 5 compounds below; output: pIC50 for each
1. CCn1c(-c2cccnc2)c2c3cc(ccc31)-c1csc(n1)C[C@H](NC(=O)[C@H](C(C)C)N(C)C(=O)[C@H]1CCN(C(=O)C#CCN3CCOCC3)C1)C(=O)N1CCC[C@H](N1)C(=O)OCC(C)(C)C2 [Example A190]
2. C=CC(=O)N1CC[C@H](C(=O)N(C)[C@H](C(=O)N[C@H]2Cc3cc(O)cc(c3)-c3ccc4c(c3)c(c(-c3cccnc3)n4[C@H](C)C#N)CC(C)(C)COC(=O)[C@@H]3CCCN(N3)C2=O)C(C)C)C1 [Example A193]
3. C=CC(=O)N1CCO[C@@H]2CCN(C(=O)N(C)[C@H](C(=O)N[C@H]3Cc4nc(cs4)-c4ccc5c(c4)c(c(-c4cccnc4[C@H](C)OC)n5CC)CC(C)(C)COC(=O)[C@@H]4CCCN(N4)C3=O)C(C)C)CC21 (some centres unmarked) [Example A596]
4. C=CC(=O)N1CC(C(=O)N(C)[C@H](C(=O)N[C@H]2Cc3cccc(c3)-c3ccc4c(c3)c(c(-c3cccnc3[C@H](C)OC)n4CC)CC(C)(C)COC(=O)[C@@H]3CCCN(N3)C2=O)C(C)C)C1 (atropisomer, axis not shown) [Example A467]
5. CCn1c(-c2cccnc2[C@H](C)OC)c2c3cc(ccc31)-c1cc(O)cc(c1)C[C@H](NC(=O)[C@H](C(C)C)N(C)C(=O)c1ncc(NC(=O)/C=C/CN(C)C)n1C)C(=O)N1CCC[C@H](N1)C(=O)OCC(C)(C)C2 [Example A529]

Key:
["< 5.00", "6.00 to 7.00", "6.00 to 7.00", "< 5.00", "6.00 to 7.00"]

====

Test target: KRAS G12S (Homo sapiens (Human), UniProt P01116+P62937, G12S)
Sequence (P01116-2 other isoform, or with tags, fused parts or gaps G12S): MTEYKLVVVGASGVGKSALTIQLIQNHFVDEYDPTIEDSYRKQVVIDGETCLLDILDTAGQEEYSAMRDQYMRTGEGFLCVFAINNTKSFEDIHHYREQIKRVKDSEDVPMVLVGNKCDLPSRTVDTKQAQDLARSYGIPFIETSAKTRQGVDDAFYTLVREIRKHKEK
Sequence (P62937 whole entry): as the sequence (P62937 whole entry) above
Test protocol: Ras-Raf (BRAF RBD) disruption / FRET / MOA assay, KRAS G12S
Format: biochemical
Experimental context: Ras-Raf disruption/FRET/MOA assay; class symbols; read-out: KRAS G12S FRET data IC50
Field: IC50. Provide a value for each of the compounds that follow.

- Compound: "C=CC(=O)N1CC2(C1)OCN([C@H](C(=O)N[C@H]1Cc3cccc(c3)-c3ccc4c(c3)c(c(-c3cccnc3[C@H](C)OC)n4CC)CC(C)(C)COC(=O)[C@@H]3CCCN(N3)C1=O)C(C)C)C2=O (atropisomer, axis not shown)"
  IC50: "1000 to 10000 nM"
- Compound: "C=CC(=O)NC[C@@H]1CCN1C(=O)N(C)[C@H](C(=O)N[C@H]1Cc2nc(cs2)-c2ccc3c(c2)c(c(-c2cccnc2[C@H](C)OC)n3CC)CC(C)(C)COC(=O)[C@@H]2CCCN(N2)C1=O)C(C)C (atropisomer, axis not shown)"
  IC50: "1000 to 10000 nM"
- Compound: "CCn1c(-c2cccnc2COC)c2c3cc(ccc31)-c1cc(O)cc(c1)C[C@H](NC(=O)[C@H](C(C)C)N(C)C(=O)C1CN(C(=O)C#CCN(C)C)C1)C(=O)N1CCC[C@H](N1)C(=O)OCC(C)(C)C2"
  IC50: "100 to 1000 nM"

For every item in the list below, what is its measured IC50?
1. C=CC(=O)N1C[C@@H]2CN(C(=O)N(C)[C@H](C(=O)N[C@H]3Cc4nc(cs4)-c4ccc5c(c4)c(c(-c4cccnc4[C@H](C)OC)n5CC)CC(C)(C)COC(=O)[C@@H]4CCCN(N4)C3=O)C(C)C)[C@@H]2C1 (atropisomer, axis not shown)
2. CCn1c(-c2cncnc2)c2c3cc(ccc31)-c1cccc(c1)C[C@H](NC(=O)[C@H](C(C)C)N(C)C(=O)[C@H]1CCN(C(=O)C#CCN(C)C)C1)C(=O)N1CCC[C@H](N1)C(=O)OCC(C)(C)C2
3. C=CC(=O)N1CCC12CCN(C(=O)N(C)[C@H](C(=O)N[C@H]1Cc3nc(cs3)-c3ccc4c(c3)c(c(-c3cccnc3[C@H](C)OC)n4CC)CC(C)(C)COC(=O)[C@@H]3CCCN(N3)C1=O)C(C)C)CC2 (atropisomer, axis not shown)

Key:
["1000 to 10000 nM", "> 10000 nM", "100 to 1000 nM"]

Exercise: Request body: readout IC50, system KRAS G12S (Homo sapiens (Human), UniProt P01116+P62937, G12S), query C=CC(=O)N1CCN(C(=O)N(C)[C@H](C(=O)N[C@H]2Cc3cc(O)cc(c3)-c3ccc4c(c3)c(c(-c3cccnc3[C@H](C)OC)n4CC)CC(C)(C)COC(=O)[C@@H]3CCCN(N3)C2=O)C(C)C)CC1 [Example A338] . Return the value.
Key: 10 to 100 nM
